- STUDY SYSTEM: HLA-B*51:01
- METHOD NOTES: IEDB peptide-MHC binding, purified MHC/competitive/radioactivity; filed as Kd, often an IC50 or EC50 that approximates it; bounds were set here for any values at or beyond the usual limits of such assays
- CONDITION NOTES: source organism: SARS coronavirus Tor2
METRIC NAME: Kd (nM)

- FPNITNLCPF: 6.33
- APSASAFFGM: 1990
- FPLNSKVKVI: 4710
- RPLMESELVI: 32.9
- FPPTSFGPLV: 6260

###

pKd: recorded values
- STUDY SYSTEM: HLA-A*01:01
- METHOD NOTES: IEDB peptide-MHC binding, purified MHC/direct/fluorescence; filed as Kd, often an IC50 or EC50 that approximates it; bounds were set here for any values at or beyond the usual limits of such assays
- CONDITION NOTES: source organism: Bacillus anthracis
pKd: −log10 of the molar value.
METRIC NAME: pKd

* RTIQGQRFW | ≤ 4.70
* KVQEWYLSY | ≤ 5.30
* FIFGKMGAG | ≤ 4.70
